# System: HSV-1 (herpes simplex type 1)
# Test summary: microbe, parasite or virus in culture
# From the text: Compounds 25 and 26 are (S)-methanocarba-T and (±)-(carba-T), respectively. (±)-carba-T was kindly provided by Dr. Y. Fulmer Shealy, Southern Research Institute, Birmingham, Ala. [drawing 5]
Measure name: SI (CC50/EC50)
Lab note: record just the number, no unit beside it.

>>> value_reported("Cc1cn([C@@]23C[C@H](O)[C@@H](CO)[C@@H]2C3)c(=O)[nH]c1=O [Compound 25, (S)-methanocarba-T, reference compound]")
1
>>> value_reported("O=c1ccn([C@H]2C[C@H](O)[C@]3(CO)C[C@H]23)c(=O)[nH]1 [Compound 21]")
1
>>> value_reported("Nc1ncnc2c1ncn2[C@@]12C[C@H](O)[C@@H](CO)[C@@H]1C2 [(S)-DMC-A, reference compound]")
1

Here is another compound to look at.
Input: Give SI (CC50/EC50) for the following compound: Nc1ccn([C@H]2C[C@H](O)[C@]3(CO)C[C@H]23)c(=O)n1 [Compound 22]
Output: 486

Provenance of the data: patent US5840728A
